Readout Label: melting point
Please answer in the form of a number followed by its unit of measurement.

What does the data say about its melting point? Entry: COC(=O)C(Cl)(Cl)Cl
-17.5 °C

Now give it for CCCC(C)OC(C)=O (stereo unspecified) too.
-100 °C

Now give it for CCCCCCCCCCc1ccc(N)cc1 too.
25 °C

Now give it for C=C(CC(=O)O)C(=O)O too.
175 °C

Now give it for CC1CC(O)CC(C)(C)C1 (stereo unspecified) too.
46.5 °C

Now give it for CS too.
-123 °C

###

# key: entry, value: log10 Koc (L/kg)
Reply briefly: the number, and no unit.

Before answering, review these 8 worked examples.
>  <Molecule>
CN(C)C(=O)Nc1cccc(C(F)(F)F)c1

>  <log10 Koc (L/kg)>
1.9

$$$$
>  <Molecule>
CCC(=O)Nc1ccc(Cl)c(Cl)c1

>  <log10 Koc (L/kg)>
2.17

$$$$
>  <Molecule>
CCOC1Oc2ccc(OS(C)(=O)=O)cc2C1(C)C (stereo not given)

>  <log10 Koc (L/kg)>
2.53

$$$$
>  <Molecule>
CCSC(=O)N(CC(C)C)CC(C)C

>  <log10 Koc (L/kg)>
2.11

$$$$
>  <Molecule>
CCCCSP(=O)(SCCCC)SCCCC

>  <log10 Koc (L/kg)>
3.7

$$$$
>  <Molecule>
NC(=O)Nc1ccccc1Cl

>  <log10 Koc (L/kg)>
1.61

$$$$
>  <Molecule>
ClC1=C(Cl)C2(Cl)C3C4OC4C(Cl)C3C1(Cl)C2(Cl)Cl (stereo not given)

>  <log10 Koc (L/kg)>
4.02

$$$$
>  <Molecule>
CCOP(=S)(OCC)SCSCC

>  <log10 Koc (L/kg)>
2.7

$$$$

What does the data say about its log10 Koc (L/kg)? Entry: CN=C=S
0.97

Now give it for CCOC(=O)CN(C(=O)CCl)c1c(CC)cccc1CC too.
2

###

Threshold check on log10 vapour pressure (mmHg): strictly below -0.9 is 1; on or above -0.9 is 0.

>  <Molecule>
OCC=Cc1ccccc1

>  <Cat>
1

$$$$
>  <Molecule>
CON(C)C(=O)Nc1ccc(Cl)c(Cl)c1

>  <Cat>
1

$$$$
>  <Molecule>
ClC1=C(Cl)C2(Cl)C3C4OC4C(Cl)C3C1(Cl)C2(Cl)Cl (stereo unspecified)

>  <Cat>
1

$$$$
>  <Molecule>
O=C(Cl)CCCC(=O)Cl

>  <Cat>
1

$$$$
>  <Molecule>
CCCCCCCCCC(C)=O

>  <Cat>
1

$$$$

Is -0.9 strictly greater than the molecule's reported log10 vapour pressure (mmHg)? molecule: CCCCCCCCCN
0

Now give it for FCC(F)(F)C(F)F too.
0

Now give it for CCCOC(=O)NCCCN(C)C too.
1

Now give it for Cc1cccc(C(C)C)c1 too.
0

Now give it for CCCCOCCOCCOC(C)=O too.
1

Now give it for Clc1ccc(-c2ccc(Cl)cc2)cc1 too.
1

Now give it for O=C(CCl)c1ccccc1 too.
1

###

# key: entry, value: melting point
Please give a number only; it is taken to be in °C.

Before answering, review these 5 worked examples.
>  <Molecule>
CCOP(=S)(OCC)SCC(=O)NC(C)C

>  <Scale Unit>
°C

>  <melting point>
28.5

$$$$
>  <Molecule>
CCCCC(CC)COC(C)=O (configuration not stated)

>  <Scale Unit>
°C

>  <melting point>
-80

$$$$
>  <Molecule>
CC1(C)[C@@H]2CC[C@@](C)(C2)[C@@H]1O

>  <Scale Unit>
°C

>  <melting point>
45.8

$$$$
>  <Molecule>
CCOC(=O)c1ccccn1

>  <Scale Unit>
°C

>  <melting point>
1

$$$$
>  <Molecule>
CCOC(=O)[N-]c1c[n+](N2CCOCC2)no1

>  <Scale Unit>
°C

>  <melting point>
140

$$$$

What does the data say about its melting point? Entry: CC=Cc1ccc(OC)c(OC)c1
18

Now give it for CCN(CC)S(=O)(=O)c1ccc(C(=O)O)cc1 too.
193

Now give it for Oc1ccccc1-c1ccccc1 too.
59

Now give it for c1cc2c3c(c1)CCC3CCC2 (configuration not stated) too.
12.8

Now give it for C=Cc1ccc(Cl)cc1 too.
15.9
